# Tested on: Vibrio parahaemolyticus
# Experimental details: Antibacterial activity against Vibrio parahaemolyticus
# Assay type: functional
We begin with a simple list: items and their reported log10(MIC).
Response schema: value (number) is log10 of MIC in units of µg/mL.

Some solved entries appear below for comparison.
{"columns": ["Molecule", "Measured metric", "Measured value"],
 "data": [
  ["Cc1cn(C2C=CC(COC(=O)CNNC(=O)c3ccncc3)O2)c(=O)[nH]c1=O (stereo unspecified)", "log10(MIC)", 3.10],
  ["CCn1cc(C(=O)O)c(=O)c2cc(F)c(N3CCNCC3)cc21", "log10(MIC)", -1.12],
  ["CCn1cc(C(=O)O)c(=O)c2cc(F)c(N3CCN(CC(=O)OCC4C=CC(n5cc(C)c(=O)[nH]c5=O)O4)CC3)cc21 (stereo unspecified)", "log10(MIC)", 0.09]
]}

# input Which measured log10(MIC) value corresponds to Cc1cn(C2C=CC(COC(=O)CNC(=O)c3ccncn3)O2)c(=O)[nH]c1=O (stereo unspecified) ?
# output 3.10

# input Which measured log10(MIC) value corresponds to "O=C(O)c1cn(C2CC2)c2cc(N3CCNCC3)c(F)cc2c1=O" ?
# output -2.02

# input Which measured log10(MIC) value corresponds to Cc1cn(C2C=CC(COC(=O)CN3CCN(c4cc5c(cc4F)c(=O)c(C(=O)O)cn5C4CC4)CC3)O2)c(=O)[nH]c1=O (stereo unspecified) ?
# output -0.52
